meta.source: the supplement of paper PMC11061612

# System: NCI-H1688 (Small Cell Lung Carcinoma)
# MEASUREMENT_PROTOCOL: combination Emax (second highest fraction inhibited in the dose matrix, 72 h); higher = more inhibition; extreme values may be limits of the assay
Decision: combination Emax >= 0.3 yields met, all other cases yield not met.

NC1(C(=O)N[C@@H](CCO)c2ccc(Cl)cc2)CCN(c2ncnc3[nH]ccc23)CC1 [Capivasertib] + Cn1cnc2c(F)c(Nc3ccc(Br)cc3Cl)c(C(=O)NOCCO)cc21 [Selumetinib] (first compound max 10 µM, 7x7, partner max 10 µM)
met
CCN(CCO)CCCOc1ccc2c(Nc3cc(CC(=O)Nc4cccc(F)c4)[nH]n3)ncnc2c1 [AZD2811] + C=CCn1c(=O)c2cnc(Nc3ccc(N4CCN(C)CC4)cc3)nc2n1-c1cccc(C(C)(C)O)n1 [AZD1775] (first compound max 1 µM, partner max 1 µM)
met
CC1(C)CCC(CN2CCN(c3ccc(C(=O)NS(=O)(=O)c4ccc(NCC5CCOCC5)c([N+](=O)[O-])c4)c(Oc4cnc5[nH]ccc5c4)c3)CC2)=C(c2ccc(Cl)cc2)C1 [Venetoclax] + Cc1cc2ncnn2cc1Nc1ncc2c(n1)n(C1CCOCC1)c(=O)n2C [AZD7648] (first compound max 1 µM, 7x7, partner max 10 µM)
not met

Form field: combination Emax at least 0.3? Entry: Cc1cc2ncnn2cc1Nc1ncc2c(n1)n(C1CCOCC1)c(=O)n2C [AZD7648] + O=C(c1cc(Cc2n[nH]c(=O)c3ccccc23)ccc1F)N1CCN(C(=O)C2CC2)CC1 [Olaparib] (first compound max 10 µM, 7x7, partner max 10 µM) not met

Please tell me: is the compound Cc1c2c(nn1C)CSCc1cc(n(C)n1)CSc1cc(c3ccccc3c1)OCCCc1c(C(=O)O)n(C)c3c-2c(Cl)ccc13 [AZD5991] + C[C@@H](Nc1cc(F)cc(F)c1)c1cc(C(=O)N(C)C)cc2c(=O)cc(N3CCOCC3)oc12 [AZD8186] (first compound max 1 µM, 7x7, partner max 3 µM) at or over 0.3 in terms of combination Emax? met

Answer whether combination Emax of CN(CCO)CC[C@H](CSc1ccccc1)Nc1ccc(S(=O)(=O)NC(=O)c2ccc(N3CCC([C@@H](O)c4ccccc4-c4ccc(Cl)cc4)CC3)cc2)cc1S(=O)(=O)C(F)(F)F [AZD4320] + Cc1cc2ncnn2cc1Nc1ncc2c(n1)n(C1CCOCC1)c(=O)n2C [AZD7648] (first compound max 1 µM, 7x7, partner max 10 µM) is greater than or equal to 0.3. met

Could you verify whether the entry NC1(C(=O)N[C@@H](CCO)c2ccc(Cl)cc2)CCN(c2ncnc3[nH]ccc23)CC1 [Capivasertib] + COc1nnc2ccc(N3CCC(c4ccc(OCCN5CCN(C)C(=O)[C@H]5C)cc4)CC3)nn12 [AZD5153] (first compound max 10 µM, 7x7, partner max 1 µM) shows combination Emax of no less than 0.3? met

* * *

# System: D-392MG (Glioblastoma);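 further: after 72 h of two-drug dosing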
# MEASUREMENT_PROTOCOL: Bliss excess, mean over the matrix (fraction); higher = more synergy
Kindly return 1 (yes) if reported Bliss excess is no lower than -0.05; return 0 (no) if it is lower.

Worked set:
C[C@@H](Nc1cc(F)cc(F)c1)c1cc(C(=O)N(C)C)cc2c(=O)cc(N3CCOCC3)oc12 [AZD8186] + C1CN(CCC1(C(=O)N[C@@H](CCO)C2=CC=C(C=C2)Cl)N)C3=NC=NC4=C3C=CN4 [AZD5363] (first compound max 10 µM, 7x7, partner max 10 µM)
0 (no)
C[C@@H]1COCCN1c1cc(C2([S@](C)(=N)=O)CC2)nc(-c2ccnc3[nH]ccc23)n1 [AZD6738] + C1CC(C1)(C(=O)[O-])C(=O)[O-].N.N.[Pt+2] [Carboplatin] (first compound max 10 µM, 7x7, partner max 10 µM)
1 (yes)
Cc1cc2ncnn2cc1Nc1ncc2c(n1)n(C1CCOCC1)c(=O)n2C [AZD7648] + C=CCn1c(=O)c2cnc(Nc3ccc(N4CCN(C)CC4)cc3)nc2n1-c1cccc(C(C)(C)O)n1 [AZD1775] (first compound max 10 µM, partner max 1 µM)
1 (yes)
N#Cc1cnc(Nc2cc(NC[C@H]3CNCCO3)c(C(F)(F)F)cn2)cn1 [SRA737] + C=CCn1c(=O)c2cnc(Nc3ccc(N4CCN(C)CC4)cc3)nc2n1-c1cccc(C(C)(C)O)n1 [AZD1775] (first compound max 10 µM, partner max 1 µM)
0 (no)
Cc1c2c(nn1C)CSCc1cc(n(C)n1)CSc1cc(c3ccccc3c1)OCCCc1c(C(=O)O)n(C)c3c-2c(Cl)ccc13 [AZD5991] + CS(=O)(=O)CCNCc1ccc(-c2ccc3ncnc(Nc4ccc(OCc5cccc(F)c5)c(Cl)c4)c3c2)o1 [Lapatinib] (first compound max 1 µM, 7x7, partner max 10 µM)
0 (no)
Cn1cnc2c(F)c(Nc3ccc(Br)cc3Cl)c(C(=O)NOCCO)cc21 [Selumetinib] + C[C@@H]1COCCN1C2=NC(=NC(=C2)C3(CC3)[S@](=N)(=O)C)C4=C5C=CNC5=NC=C4 [AZD6738] (first compound max 10 µM, 7x7, partner max 10 µM)
1 (yes)

Now consider a different molecule.
Is the recorded value of Bliss excess equal to or greater than -0.05 for this molecule? N#Cc1cnc(Nc2cc(NC[C@H]3CNCCO3)c(C(F)(F)F)cn2)cn1 [SRA737] + CCc1c2c(nc3ccc(O)cc13)-c1cc3c(c(=O)n1C2)COC(=O)[C@]3(O)CC [SN-38] (first compound max 10 µM, 7x7, partner max 0.3 µM) 0 (no)

* * *

# System: TYK-nu (Ovarian Carcinoma)
# MEASUREMENT_PROTOCOL: combination Emax (second highest fraction inhibited in the dose matrix, 72 h); higher = more inhibition; extreme values may be limits of the assay
QUANTITY: combination Emax
The reply should be a number, written without any unit.

CCc1c2c(nc3ccc(O)cc13)-c1cc3c(c(=O)n1C2)COC(=O)[C@]3(O)CC [SN-38] + O=C(c1cc(Cc2n[nH]c(=O)c3ccccc23)ccc1F)N1CCN(C(=O)C2CC2)CC1 [Olaparib] (first compound max 0.3 µM, 7x7, partner max 10 µM)
0.766
Cc1c2c(nn1C)CSCc1cc(n(C)n1)CSc1cc(c3ccccc3c1)OCCCc1c(C(=O)O)n(C)c3c-2c(Cl)ccc13 [AZD5991] + CN(C)CCCOc1ccc(-c2ccc3ncc4c(c3c2)n(C2CCOCC2)c(=O)n4C)cn1 [AZD0156] (first compound max 1 µM, 7x7, partner max 1 µM)
0.397

Please give the measured combination Emax for this compound: NC1(C(=O)N[C@@H](CCO)c2ccc(Cl)cc2)CCN(c2ncnc3[nH]ccc23)CC1 [Capivasertib] + COc1nnc2ccc(N3CCC(c4ccc(OCCN5CCN(C)C(=O)[C@H]5C)cc4)CC3)nn12 [AZD5153] (first compound max 10 µM, 7x7, partner max 1 µM) 0.632

Look up combination Emax: CCc1c2c(nc3ccc(O)cc13)-c1cc3c(c(=O)n1C2)COC(=O)[C@]3(O)CC [SN-38] + CN(C)CCCOc1ccc(-c2ccc3ncc4c(c3c2)n(C2CCOCC2)c(=O)n4C)cn1 [AZD0156] (first compound max 0.3 µM, 7x7, partner max 1 µM) 0.847

So what's the measured combination Emax for this one? CN(C)CCCOc1ccc(-c2ccc3ncc4c(c3c2)n(C2CCOCC2)c(=O)n4C)cn1 [AZD0156] + C=CCn1c(=O)c2cnc(Nc3ccc(N4CCN(C)CC4)cc3)nc2n1-c1cccc(C(C)(C)O)n1 [AZD1775] (first compound max 1 µM, partner max 1 µM) 0.679

* * *

Quick reference: combination Emax of the listed items.
# Tested on: SKN-3 (Head and Neck Carcinoma)
# MEASUREMENT_PROTOCOL: combination Emax (second highest fraction inhibited in the dose matrix, 72 h); higher = more inhibition; extreme values may be limits of the assay

Solved cases below.
CCN(CCO)CCCOc1ccc2c(Nc3cc(CC(=O)Nc4cccc(F)c4)[nH]n3)ncnc2c1 [AZD2811] + O=C(c1cc(Cc2n[nH]c(=O)c3ccccc23)ccc1F)N1CCN(C(=O)C2CC2)CC1 [Olaparib] (first compound max 1 µM, 7x7, partner max 10 µM)
0.0796
NC1(C(=O)N[C@@H](CCO)c2ccc(Cl)cc2)CCN(c2ncnc3[nH]ccc23)CC1 [Capivasertib] + Cn1cnc2c(F)c(Nc3ccc(Br)cc3Cl)c(C(=O)NOCCO)cc21 [Selumetinib] (first compound max 10 µM, 7x7, partner max 10 µM)
0.426
NC1(C(=O)N[C@@H](CCO)c2ccc(Cl)cc2)CCN(c2ncnc3[nH]ccc23)CC1 [Capivasertib] + CC(=O)c1c(C)c2cnc(Nc3ccc(N4CCNCC4)cn3)nc2n(C2CCCC2)c1=O [Palbociclib] (first compound max 10 µM, 7x7, partner max 10 µM)
0.474
Cc1c2c(nn1C)CSCc1cc(n(C)n1)CSc1cc(c3ccccc3c1)OCCCc1c(C(=O)O)n(C)c3c-2c(Cl)ccc13 [AZD5991] + CCN(CCO)CCCOc1ccc2c(Nc3cc(CC(=O)Nc4cccc(F)c4)[nH]n3)ncnc2c1 [AZD2811] (first compound max 1 µM, 7x7, partner max 1 µM)
0.271
CN(CCO)CC[C@H](CSc1ccccc1)Nc1ccc(S(=O)(=O)NC(=O)c2ccc(N3CCC([C@@H](O)c4ccccc4-c4ccc(Cl)cc4)CC3)cc2)cc1S(=O)(=O)C(F)(F)F [AZD4320] + CN(C)CCCOc1ccc(-c2ccc3ncc4c(c3c2)n(C2CCOCC2)c(=O)n4C)cn1 [AZD0156] (first compound max 1 µM, 7x7, partner max 1 µM)
0.102

For the compound shown here, C[C@@H]1COCCN1c1cc(C2([S@](C)(=N)=O)CC2)nc(-c2ccnc3[nH]ccc23)n1 [AZD6738] + O=C(c1cc(Cc2n[nH]c(=O)c3ccccc23)ccc1F)N1CCN(C(=O)C2CC2)CC1 [Olaparib] (first compound max 10 µM, 7x7, partner max 10 µM) , give the reported combination Emax. 0.391

Given the entry Cc1c2c(nn1C)CSCc1cc(n(C)n1)CSc1cc(c3ccccc3c1)OCCCc1c(C(=O)O)n(C)c3c-2c(Cl)ccc13 [AZD5991] + C[C@@H](Nc1cc(F)cc(F)c1)c1cc(C(=O)N(C)C)cc2c(=O)cc(N3CCOCC3)oc12 [AZD8186] (first compound max 1 µM, 7x7, partner max 3 µM) , report its measured combination Emax. 0.31
